Quick reference for n (hill number) among some compounds
# measured.target: human dopamine D2 receptor (Homo sapiens, UniProt P14416)
# Sequence (P14416 1-414 isoform P14416-2): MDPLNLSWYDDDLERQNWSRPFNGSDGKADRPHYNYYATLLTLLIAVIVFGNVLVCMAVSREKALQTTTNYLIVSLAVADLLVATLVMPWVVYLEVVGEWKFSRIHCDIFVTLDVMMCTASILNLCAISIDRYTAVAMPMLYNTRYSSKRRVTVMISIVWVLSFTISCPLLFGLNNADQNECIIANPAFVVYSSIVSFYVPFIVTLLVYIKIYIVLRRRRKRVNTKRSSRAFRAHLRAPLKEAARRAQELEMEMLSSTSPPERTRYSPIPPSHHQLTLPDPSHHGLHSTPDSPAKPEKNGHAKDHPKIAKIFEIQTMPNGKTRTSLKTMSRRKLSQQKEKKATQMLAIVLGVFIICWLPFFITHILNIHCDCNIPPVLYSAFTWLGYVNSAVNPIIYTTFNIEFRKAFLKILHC
# cond: 0.7 nM ^3 H-raclopride; transfected COS-7 cells
Give your answer as a number; write no unit.

CCN1CCC[C@H]1CNC(=O)c1cc(S(N)(=O)=O)ccc1OC [(-)sulphride] ... 1.2
CCN1CCC[C@@H]1CNC(=O)c1cc(S(N)(=O)=O)ccc1OC [(+)sulphride] ... 1.0
CN(C)CCCN1c2ccccc2Sc2ccc(Cl)cc21 ... 0.9

Form field n (hill number), entry `NCCc1ccc(O)c(O)c1` : 1.1

Form field n (hill number), entry `CN1CCc2cccc3c2[C@H]1Cc1ccc(O)c(O)c1-3` : 1.0
